Let's go through some IC50 measurements on Poly [ADP-ribose] polymerase 1 (Mus musculus) together.
Sequence (P11103 whole entry): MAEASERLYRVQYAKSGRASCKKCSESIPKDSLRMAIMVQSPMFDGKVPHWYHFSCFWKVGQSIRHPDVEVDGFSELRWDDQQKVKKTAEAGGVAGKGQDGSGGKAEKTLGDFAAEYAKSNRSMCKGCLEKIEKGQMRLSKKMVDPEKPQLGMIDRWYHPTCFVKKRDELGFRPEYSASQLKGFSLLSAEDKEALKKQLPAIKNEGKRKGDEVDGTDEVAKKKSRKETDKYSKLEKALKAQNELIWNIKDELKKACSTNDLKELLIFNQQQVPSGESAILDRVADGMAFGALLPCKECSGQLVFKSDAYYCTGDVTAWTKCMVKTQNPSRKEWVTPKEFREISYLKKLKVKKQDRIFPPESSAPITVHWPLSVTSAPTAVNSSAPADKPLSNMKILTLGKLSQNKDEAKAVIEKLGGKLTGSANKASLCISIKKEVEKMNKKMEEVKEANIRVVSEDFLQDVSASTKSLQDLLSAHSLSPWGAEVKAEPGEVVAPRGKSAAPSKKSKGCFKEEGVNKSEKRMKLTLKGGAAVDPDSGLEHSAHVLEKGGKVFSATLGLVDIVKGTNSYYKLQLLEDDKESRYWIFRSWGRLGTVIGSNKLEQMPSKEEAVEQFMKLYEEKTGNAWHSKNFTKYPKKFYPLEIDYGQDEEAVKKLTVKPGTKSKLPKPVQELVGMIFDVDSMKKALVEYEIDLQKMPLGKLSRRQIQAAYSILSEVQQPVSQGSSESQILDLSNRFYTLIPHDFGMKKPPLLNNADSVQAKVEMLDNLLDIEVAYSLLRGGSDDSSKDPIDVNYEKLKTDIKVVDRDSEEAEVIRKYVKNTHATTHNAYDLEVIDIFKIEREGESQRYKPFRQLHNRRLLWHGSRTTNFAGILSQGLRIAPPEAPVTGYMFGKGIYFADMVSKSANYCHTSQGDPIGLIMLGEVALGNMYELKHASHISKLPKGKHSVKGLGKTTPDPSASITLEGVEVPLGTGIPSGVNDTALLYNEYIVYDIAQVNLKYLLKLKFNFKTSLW
Answer in nM, number only, no unit symbol.

Solved entries:
Cc1cccc2c(=O)[nH]c(-c3ccccc3)nc12 : 870
NC(=O)c1cccc(N)c1 [3-AMINOBENZAMIDE] : 19100
COc1cccc2c(O)nc(-c3ccc(C#N)cc3)nc12 : 1340

Q: Field request: IC50 | item: COc1cccc2c(=O)[nH]c(-c3ccc(N=[N+]=[N-])cc3)nc12
Result: 1930
